Origin of the recorded values: paper PMC4596527

tested on: Chinese hamster ovary (CHO) cells; assay: MTT cell viability, protection against H2O2-mediated cytotoxicity in CHO cells; conditions: 50 μM compound for 2 h, then 1mM H2O2 for 1 h; MTT
READOUT LABEL: Cytotoxicity CHO (%)

COMPOUND | OBSERVED RESULT
COc1ccc(CCN(CCCC(C#N)(c2ccc(OC)c(OC)c2)C(C)C)CC2=CC(C)(C)NC(C)(C)C2)cc1OC (stereo not shown) [Compound 24A] | 95.3
COc1ccc(CCN(CCCC(C#N)(c2ccc(OC)c(OC)c2)C(C)C)CC2=CC(C)(C)N(O)C(C)(C)C2)cc1OC.Cl (stereo not shown) [Compound 24B] | 64.8
COc1ccc(CCN(CCCC(C#N)(c2ccc(OC)c(OC)c2)C(C)C)CC2=CC(C)(C)NC2(C)C)cc1OC (stereo not shown) [Compound 23A] | 74.0
COc1ccc(CCN(CCCC(C#N)(c2ccc(OC)c(OC)c2)C(C)C)CC2=CC(C)(C)N(O)C2(C)C)cc1OC.Cl (stereo not shown) [Compound 23B] | 66.7

----------
system: human aortic vascular smooth muscle cells (HSMCs); assay: MTT cell viability, protection against H2O2-mediated cytotoxicity in HSMC cells; settings: 50 μM compound for 2 h, then 1mM H2O2 for 1 h
# Cytotoxicity HSMC (%) annotations
READOUT LABEL: Cytotoxicity HSMC (%)

MOLECULE | UNIT OF MEASURE | OBSERVED RESULT
COc1ccc(CCN(CCCC(C#N)(c2ccc(OC)c(OC)c2)C(C)C)CC2=CC(C)(C)N(O)C(C)(C)C2)cc1OC.Cl (stereo not shown) [Compound 24B] | % | 57.2
COc1ccc(CCN(CCCC(C#N)(c2ccc(OC)c(OC)c2)C(C)C)CC2=CC(C)(C)NC(C)(C)C2)cc1OC (stereo not shown) [Compound 24A] | % | 91.1
COc1ccc(CCN(CCCC(C#N)(c2ccc(OC)c(OC)c2)C(C)C)CC2=CC(C)(C)NC2(C)C)cc1OC (stereo not shown) [Compound 23A] | % | 64.8
COc1ccc(CCN(CCCC(C#N)(c2ccc(OC)c(OC)c2)C(C)C)CC2=CC(C)(C)N(O)C2(C)C)cc1OC.Cl (stereo not shown) [Compound 23B] | % | 58.6
